System: Cyberlindnera jadinii
assay summary: Antifungal activity against Candida utilis after 24 hrs
Type: functional
reported conditions: Williopsis jadinii
measured attribute: MIC

Inquiry: Query the reported MIC for Cyberlindnera jadinii; item: Cc1cc(=O)oc2cc(OCC(O)Cn3cnnn3)cc(OCC(O)Cn3cnnn3)c12 (stereo unspecified)
Reply text: 32 to 512 µg/mL

Inquiry: Query the reported MIC for Cyberlindnera jadinii; item: OC(Cn1cncn1)(Cn1cncn1)c1ccc(F)cc1F
Reply text: 1 to 256 µg/mL

Inquiry: Query the reported MIC for Cyberlindnera jadinii; item: Cc1cc(=O)oc2cc(OCC(O)Cn3cnnn3)ccc12 (stereo unspecified)
Reply text: 8 to 512 µg/mL

Inquiry: Query the reported MIC for Cyberlindnera jadinii; item: Cc1cc(=O)oc2cc(OCC(O)Cn3nnnc3C)cc(OCC(O)Cn3nnnc3C)c12 (stereo unspecified)
Reply text: 32 to 512 µg/mL

Inquiry: Query the reported MIC for Cyberlindnera jadinii; item: Cc1cc(=O)oc2cc(OCC(O)Cn3nnnc3C)ccc12 (stereo unspecified)
Reply text: 4 to 512 µg/mL

Inquiry: Query the reported MIC for Cyberlindnera jadinii; item: CCn1cc(C(=O)O)c(=O)c2cc(F)c(N3CCNCC3)cc21
Reply text: 1 to 16 µg/mL

* * *

Could you please report measured zone of inhibition at 250 µg/mL for the items listed next?
Test system: Aspergillus niger
assay summary: Antifungal activity against Aspergillus niger assessed as zone of inhibition at 250 ug/ml
Type: functional
reported conditions: read-out: IZ

Inquiry: For CC(=O)N1N=C(Cn2cc(-c3nn(-c4ccncc4)cc3-c3nnnn3-c3ccc(Br)cc3)c3cc(Cl)ccc32)OC1(C)c1ccc(C(F)(F)F)cc1 (stereo not drawn) , what is its reported zone of inhibition at 250 µg/mL?
Reply text: 8 to 20 mm

Inquiry: For CC(=O)N1CCN(c2ccc(OCC3COC(Cn4ccnc4)(c4ccc(Cl)cc4Cl)O3)cc2)CC1 (stereo not drawn) , what is its reported zone of inhibition at 250 µg/mL?
Reply text: 23 to 26 mm

Inquiry: For c1ccc(-c2nnnn2-c2nc3ccccc3s2)cc1 , what is its reported zone of inhibition at 250 µg/mL?
Reply text: 16 to 26 mm

Inquiry: For CC(=O)N1N=C(Cn2cc(-c3nn(-c4ccncc4)cc3-c3nnnn3-c3ccc(C)cc3)c3cc(Cl)ccc32)OC1(C)c1ccc(C(F)(F)F)cc1 (stereo not drawn) , what is its reported zone of inhibition at 250 µg/mL?
Reply text: 8 to 20 mm

Inquiry: For CC(=O)N1N=C(Cn2cc(-c3nn(-c4ccncc4)cc3-c3nnnn3-c3ccccc3)c3cc(Cl)ccc32)OC1(C)c1ccc(C(F)(F)F)cc1 (stereo not drawn) , what is its reported zone of inhibition at 250 µg/mL?
Reply text: 8 to 20 mm

Inquiry: For Clc1ccc(-c2nnnn2-c2nc3ccccc3s2)cc1 , what is its reported zone of inhibition at 250 µg/mL?
Reply text: 16 to 26 mm

Inquiry: For Oc1ccc(-c2nnnn2-c2nc3ccccc3s2)cc1O , what is its reported zone of inhibition at 250 µg/mL?
Reply text: 16 to 26 mm

Inquiry: For CC(=O)N1N=C(Cn2cc(-c3nn(-c4ccncc4)cc3-c3nnnn3-c3ccc(C(F)(F)F)cc3)c3cc(Cl)ccc32)OC1(C)c1ccc(C(F)(F)F)cc1 (stereo not drawn) , what is its reported zone of inhibition at 250 µg/mL?
Reply text: 8 to 20 mm
